Test system: Escherichia coli
method_notes: Antimicrobial activity against Escherichia coli MC4100 harboring pB-acc1 plasmid by agar dilution technique
Assay type: functional
// values below are reported MIC

{"compound": "CO/N=C(\\C(=O)N[C@@H]1C(=O)N2C(C(=O)O)=C(COC(N)=O)CS[C@H]12)c1ccco1", "measurement_target": "Escherichia coli", "comparative_sign": "=", "MIC, µg/mL": 128}
{"compound": "CO[C@@]1(NC(=O)Cc2cccs2)C(=O)N2C(C(=O)O)=C(COC(N)=O)CS[C@@H]21", "measurement_target": "Escherichia coli", "comparative_sign": "=", "MIC, µg/mL": 4}
{"compound": "N[C@@H](C(=O)N[C@@H]1C(=O)N2C(C(=O)O)=C(Cl)CS[C@H]12)c1ccccc1 [CEFACLOR ANHYDROUS]", "measurement_target": "Escherichia coli", "comparative_sign": ">", "MIC, µg/mL": 512}
{"compound": "CC(C)(O/N=C(\\C(=O)N[C@@H]1C(=O)N2C(C(=O)[O-])=C(C[n+]3ccccc3)CS[C@H]12)c1csc(N)n1)C(=O)O", "measurement_target": "Escherichia coli", "comparative_sign": "=", "MIC, µg/mL": 128}
{"compound": "CO[C@@]1(NC(=O)C2SC(=C(C(N)=O)C(=O)O)S2)C(=O)N2C(C(=O)O)=C(CSc3nnnn3C)CS[C@@H]21 (stereo not given in full)", "measurement_target": "Escherichia coli", "comparative_sign": "=", "MIC, µg/mL": 1}
